The reported numbers originate from ChEMBL document CHEMBL1156829.

I'd appreciate it if you could supply pEC50 values for the items below.
- System: Plasmodium falciparum
- test details: NOVARTIS: Inhibition of Plasmodium falciparum W2 (drug-resistant) proliferation in erythrocyte-based infection assay
- Assay type: functional, organism-based
- assay conditions: Plasmodium falciparum, W2; read-out: EC50
One number for each entry, as −log10 of the molar value.

Reference set (4 entries):
Cc1cc(/C=C2\Sc3ccccc3N2C)[n+](C)c2ccccc12; 7.03
C=CCn1c(SCC(=O)Nc2ccccc2C)nc2sc(C)cc2c1=O; 5.75
c1ccc2cc3c(NCCCN4CCOCC4)ccnc3cc2c1; 7.08
O=C(Nc1ccccc1)NC1CC2CCCC(C1)N2CCc1ccccc1 (stereo unspecified); 7.01

Let's switch to this compound now.
Output reported pEC50 of the compound O=C1NN(c2ccc(Br)cc2)C(=O)C1=Cc1c(O)ccc2ccccc12 on Plasmodium falciparum. 6.09

---

- Tested on: Plasmodium falciparum
- test details: NOVARTIS: Inhibition of Plasmodium falciparum 3D7 (drug-susceptible) proliferation in erythrocyte-based infection assay
- Type: functional, organism-based
- assay conditions: Plasmodium falciparum, 3D7
Exercise: for every item that follows, state its recorded log10 of EC50.
On a log10 scale: recorded EC50, unit nM.

Guide cases for log10 of EC50, answers given:
COc1ccc(NC(=O)C2c3ccccc3C(=O)N(C3CCCC3)C2c2cccs2)cc1Cl (stereo unspecified); 2.11
CCOC(=O)c1cnc2c(C)cccc2c1Nc1cccc(C(C)=O)c1; 3.01
CCOC(=O)C1=C(C)NC2=C(C(=O)CC(c3ccc(OC)c(OC)c3)C2)C1c1ccccc1F (stereo unspecified); 1.44
COc1cc(NC(=O)/C=C/c2ccccc2Cl)cc(OC)c1OC; 2.94
CN1CCN(CCCNc2ccnc3cc4ccccc4cc23)CC1; 1.38
CN(CCCNc1ccnc2cc(Cl)ccc12)S(=O)(=O)c1ccc([N+](=O)[O-])cc1; 2.38

For every record below, what is its log10 of EC50?
1. NCCCC[C@H]1C(=O)Nc2ccc(O)cc2C(=O)N1C(C(=O)NCC(=O)O)c1cccnc1 (stereo partly specified)
2. COc1nncc(-c2cnnc(SC)n2)n1
3. Cc1nc2ccc(Br)cc2c(O)c1CC(C)C

[2.06, 2.37, 3.44]

---

- test details: NOVARTIS: Cytotoxicity against human hepatocellular carcinoma cell line (Huh7)
- Type: toxicity, cell-based, Huh-7
- assay conditions: Huh7 cells (hepatocellular carcinoma cell line)
Could you please report measured CC50 for the items listed next?

FC(F)(F)c1cccc(NC(=S)N2CCSC2c2ccc(Br)cc2)c1 (stereo not given); 43.3 µM

Go through the list and state CC50 for each entry.
1. Cc1ccc(CN2C[C@H](n3cnnn3)C[C@H]2C(=O)NCCc2cccc(Cl)c2)c(C)c1
2. O=C1N(c2ccccc2)C[C@@H]2C[C@@H](c3ccc(C#CCCO)cc3)N3CCC[C@@]123
3. CCOc1ccc(C(=O)N2CCN(Cc3ccccc3)CC2)cc1

["> 10.5 µM", "16.8 µM", "> 100 µM"]

---

For each record, write down the corresponding EC50.
- Tested on: Plasmodium falciparum
- test details: NOVARTIS: Inhibition of Plasmodium falciparum 3D7 (drug-susceptible) proliferation in erythrocyte-based infection assay
- Type: functional, organism-based
- assay conditions: Plasmodium falciparum, 3D7
Answers are plain numbers, in nM.

Below are worked cases with known answers.
O=C(c1ccc([N+](=O)[O-])o1)N1CCN(c2cccc(Cl)c2)CC1; 6330
COc1cc(C=CC(=O)Nc2ccc3nc(N4CCN(c5ncccn5)CC4)cc(C)c3c2)cc(OC)c1OC; 841
CN(C)c1ccc(-c2cc(-c3ccccc3)[s+]c(-c3ccccc3)c2)cc1; 318
CCOC(=O)C1CCCN(C(=O)c2c(C)oc3c2C(=O)c2ccccc2C3=O)C1 (centres undefined); 171
C/C(=C\c1ccccc1)CN(C(=O)c1ccc(C(C)(C)C)cc1)C(C)C; 217

Next:
Write down the reported EC50 (system: Plasmodium falciparum) of COc1ccc(C2C(C(=O)Nc3cccc(Cl)c3)c3ccccc3C(=O)N2C2CCCCC2)cc1 (centres undefined) 1550

---

- Tested on: Plasmodium falciparum
- test details: NOVARTIS: Inhibition of Plasmodium falciparum W2 (drug-resistant) proliferation in erythrocyte-based infection assay
- Format: functional, organism-based
- assay conditions: Plasmodium falciparum, W2; read-out: EC50
readout: pEC50
Numbers only, as −log10 of the molar value.

The cases that follow already have their pEC50 on record.
Cc1ccc(CN=C(N)Nc2nc(C)cc(C)n2)cc1; 6.22
Cc1ccc2nc(C)cc(NCCN(C)C)c2c1; 6.15
CN1CCc2c(sc3nc(SCC(=O)NCCc4ccccc4)n(-c4ccc(Cl)cc4)c(=O)c23)C1; 5.72
CCc1ccc(-n2c(C(CC)N(CCc3ccccc3)C(=O)c3cc(OC)cc(OC)c3)nc3ccccc3c2=O)cc1 (stereo unspecified); 6.54
O=C(Cn1ccc(=NCc2ccccc2)cc1)c1ccc(I)cc1; 6.35
CCCCCCc1cc(O)c2c3c(c(=O)oc2c1)CCC(C)C3 (stereo unspecified); 6.53

For every item in the list below, what is its measured pEC50?
1. Cc1ccn(CC(=O)N2CCOc3c(cc(-c4csc5ccccc45)cc3OCCc3ccccn3)C2)n1
2. CCOC(=O)NN=CC=NNC(=O)OCC

6.14
6.63

Below are some compounds; for each one, tell me its pEC50.
1. COC(=O)NCCNC(=O)COC(c1cccs1)c1cccnc1Cl (stereo unspecified)
2. COc1ccc(C=Cc2ccc3ccccc3[n+]2C)cc1
3. Brc1ccc(-c2cn3c([n+]2-c2ccccc2)SCC3)cc1

6.77
5.10
6.52

---

- test details: NOVARTIS: Cytotoxicity against human hepatocellular carcinoma cell line (Huh7)
- Assay type: toxicity, cell-based, Huh-7
- assay conditions: Huh7 cells (hepatocellular carcinoma cell line)
readout: CC50

Worked cases, CC50 given:
COc1ccc(CC(=O)Nc2sc3c(c2C(=O)Nc2cccc4ccccc24)CCCC3)cc1; > 10 µM
CCCCCc1ccc(C(=O)NCCCCNc2ccnc3cc(Cl)ccc23)cc1; > 10 µM

Dear colleague, could you please provide CC50 for the compounds listed below?
1. COc1ccc(CCNc2ncnc3c2[nH]c2ccccc23)cc1
2. CCc1ccccc1N(CC(=O)NC1CCCCC1)C(=O)CCC(=O)Nc1ccccn1
3. COC(=O)[C@@H]1C[C@@H](NC(=O)c2ccc(OC)cc2OC)CN1Cc1cccc2ccccc12
4. CCOC(=O)CCC(=O)Oc1ccccc1-c1nc2cc(C)ccn2c1NC(C)(C)CC(C)(C)C

1. 24.9 µM
2. > 100 µM
3. > 100 µM
4. > 10 µM

Hi there! I need CC50 for each item below, if you can.
1. OC(CNC1CCN(Cc2ccccc2)CC1)COc1ccc(Br)cc1 (stereo not drawn)
2. CC(=O)N1CCN(C(=O)CCCSc2nnc(-c3ccc(C)cc3)n2-c2cccc(C)c2)CC1C (stereo not drawn)
3. COc1cccc(CCOc2ccc3c(c2)C(=O)N(C(CC(C)C)C(=O)NC2CCN(Cc4ccccc4)CC2)[C@@H](Cc2ccc(O)cc2)C(=O)N3)c1 (stereo partly drawn)

["> 10 µM", "> 10 µM", "> 10 µM"]

---

Record form. Attribute: pEC50. Fill in for each entry.
- System: Plasmodium falciparum
- test details: NOVARTIS: Inhibition of Plasmodium falciparum W2 (drug-resistant) proliferation in erythrocyte-based infection assay
- Format: functional, organism-based
- assay conditions: Plasmodium falciparum, W2; read-out: EC50
Give bare numbers, as −log10 of the molar value.

Some compounds with recorded pEC50:
COc1cc(OC)c(N(C)S(=O)(=O)c2cccc(C(=O)OCC(=O)Nc3ccccc3C(C)=O)c2)cc1Cl; 5.14
COc1cnc(-c2ccccn2)nc1N1CCCC1; 6.19
OCCNc1nc(Nc2ccc(Cl)cc2)nc2ccccc12; 6.29

Below are 4 compounds. Give each one its pEC50.
1. CCNC(=O)[C@@H]1C[C@@H](NC2C3CC4CC(C3)CC2C4)CN1Cc1cccc(OC)c1OC (stereo partly specified)
2. CCc1cccc(NC(=O)CCCn2c(=O)c3cccn3c3ccccc32)c1
3. COc1ccc(C(NC(=O)COc2ccccc2)c2cc(Cl)c3cccnc3c2O)cc1OC (stereo unspecified)
4. CCCn1c(=N)c(C(=O)NC2CCCCC2)cc2c(=O)n3cccc(C)c3nc21

[5.34, 6.08, 5.51, 5.89]

---

- System: Plasmodium falciparum
- test details: NOVARTIS: Inhibition of Plasmodium falciparum W2 (drug-resistant) proliferation in erythrocyte-based infection assay
- Assay type: functional, organism-based
- assay conditions: Plasmodium falciparum, W2; read-out: EC50
Please respond with reported pEC50 for every item in the list.
One number for each entry, as −log10 of the molar value.

COc1ccc(C2CC(=O)C3=C(C2)NC(C)=C(C(=O)OC2CCCCC2)C3c2ccc([N+](=O)[O-])cc2)cc1OC (centres undefined); 7.21
O=C(CC1N=C2c3ccccc3N=C(SCc3cccc(F)c3)N2C1=O)NCc1cccs1 (centres undefined); 6.02

// for each molecule below, give its pEC50
1. C=CC1CN2CCC1CC2[C@@H](OC(=O)c1ccc(OC)cc1)c1ccnc2ccccc12 (some centres undefined)
2. CC1(C)Oc2ccc3ccc(=O)oc3c2CC1=NNC(N)=S
3. C=CC1CN2CCC1CC2[C@@H](OC(=O)c1cc([N+](=O)[O-])cc([N+](=O)[O-])c1)c1ccnc2ccc(OC)cc12 (some centres undefined)

1: 6.29; 2: 5.38; 3: 5.79

// for each molecule below, give its pEC50
1. CCOC(=O)c1c(C)[nH]c2c1cc(O)c1ccccc12
2. CCOC(=O)C1=C(CC)NC2=C(C(=O)CC(C)(C)C2)C1c1ccccc1F (centres undefined)

6.90
6.82
